system: NTUB1 cells; assay: Cell viability, WST-1 assay; assay type: cell-based, human; conditions: agent alone
result_type: IC50 (µM)
# number only, unit µM dropped from output

State, for NTUB1 cells, measured IC50 of the compound listed here: N.N.[Cl][Pt][Cl] [cisplatin]
3.6
